- assayTarget: Homeodomain-interacting protein kinase 1 (Homo sapiens, UniProt Q86Z02)
- Sequence (Q86Z02 whole entry): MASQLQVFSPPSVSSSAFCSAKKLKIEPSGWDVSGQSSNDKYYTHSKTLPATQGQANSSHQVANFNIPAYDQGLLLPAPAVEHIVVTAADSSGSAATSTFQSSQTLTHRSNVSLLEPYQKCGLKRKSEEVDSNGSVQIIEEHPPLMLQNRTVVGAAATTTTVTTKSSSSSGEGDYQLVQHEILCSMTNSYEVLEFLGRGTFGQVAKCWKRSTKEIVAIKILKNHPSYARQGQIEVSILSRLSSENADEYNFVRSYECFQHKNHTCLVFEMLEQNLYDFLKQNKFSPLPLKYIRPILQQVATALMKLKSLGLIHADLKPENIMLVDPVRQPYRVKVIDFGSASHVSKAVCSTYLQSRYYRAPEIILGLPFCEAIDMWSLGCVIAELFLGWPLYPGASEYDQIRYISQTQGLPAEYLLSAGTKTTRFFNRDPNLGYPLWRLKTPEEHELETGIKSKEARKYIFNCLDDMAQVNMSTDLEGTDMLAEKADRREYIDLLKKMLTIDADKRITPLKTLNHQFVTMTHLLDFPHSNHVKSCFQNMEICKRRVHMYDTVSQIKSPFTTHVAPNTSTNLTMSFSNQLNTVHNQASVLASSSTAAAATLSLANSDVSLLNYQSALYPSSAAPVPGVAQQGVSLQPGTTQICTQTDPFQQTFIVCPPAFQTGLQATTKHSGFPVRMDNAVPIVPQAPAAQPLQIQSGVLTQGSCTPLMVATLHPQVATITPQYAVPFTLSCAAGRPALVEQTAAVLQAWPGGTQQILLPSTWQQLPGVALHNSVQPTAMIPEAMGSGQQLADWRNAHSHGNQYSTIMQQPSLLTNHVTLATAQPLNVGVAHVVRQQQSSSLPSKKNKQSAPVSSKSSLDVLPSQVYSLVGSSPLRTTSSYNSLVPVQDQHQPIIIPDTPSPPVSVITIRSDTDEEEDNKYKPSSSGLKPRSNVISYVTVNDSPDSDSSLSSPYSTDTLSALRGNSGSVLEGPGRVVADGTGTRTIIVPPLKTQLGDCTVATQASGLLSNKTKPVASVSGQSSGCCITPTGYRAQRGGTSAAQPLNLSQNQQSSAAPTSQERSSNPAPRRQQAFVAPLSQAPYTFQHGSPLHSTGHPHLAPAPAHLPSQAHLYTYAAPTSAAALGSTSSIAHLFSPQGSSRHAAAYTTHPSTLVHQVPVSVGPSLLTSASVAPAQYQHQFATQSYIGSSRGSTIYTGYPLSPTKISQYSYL
measurementKind: IC50 (µM)
Write the value in µM as a bare number.

Cn1cc(-c2cccc(NC(=O)c3cc4c(nc3O[C@H]3C[C@@H](O)C3)OC(C)(C)C4)n2)cn1 tested on Homeodomain-interacting protein kinase 1 (Homo sapiens, UniProt Q86Z02) gave IC50: 26.5

* * *

- assayTarget: UniProtKB Q9NWZ3
- Sequence (Q9NWZ3 whole entry): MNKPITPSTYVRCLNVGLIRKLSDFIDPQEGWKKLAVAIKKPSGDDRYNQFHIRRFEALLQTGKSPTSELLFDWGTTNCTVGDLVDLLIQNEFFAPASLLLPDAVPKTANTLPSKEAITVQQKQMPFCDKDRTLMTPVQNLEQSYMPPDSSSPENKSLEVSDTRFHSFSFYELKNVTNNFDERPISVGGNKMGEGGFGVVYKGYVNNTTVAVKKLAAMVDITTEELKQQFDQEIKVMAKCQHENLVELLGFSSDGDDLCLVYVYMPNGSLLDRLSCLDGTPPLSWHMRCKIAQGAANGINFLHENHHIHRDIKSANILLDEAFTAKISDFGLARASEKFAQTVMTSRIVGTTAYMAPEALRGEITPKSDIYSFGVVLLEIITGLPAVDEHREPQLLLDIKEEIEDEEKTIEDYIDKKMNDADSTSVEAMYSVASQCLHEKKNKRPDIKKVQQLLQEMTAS
Below: a set of entries, each annotated with reported pIC50.
# pIC50 is unitless: minus log10 of the molar concentration; print number only

CCOc1nc2c(cc1C(=O)Nc1cccc(-c3ccn(C)n3)n1)CC(C)(C)O2
5.86

# pIC50 of CCOc1nc2c(cc1C(=O)Nc1cccc(C(F)F)n1)CC(C)(C)O2 = 7.32

# pIC50 of CN1CCC(Oc2nc3c(cc2C(=O)Nc2cccc(-c4cnn(C)c4)n2)CC(C)(C)O3)C1 (stereo not drawn) = 7.13

# pIC50 of Cn1cc(-c2cccc(NC(=O)c3cc4c(nc3OC3CCNC3)OC(C)(C)C4)n2)cn1 (stereo not drawn) = 6.42

# pIC50 of CCOc1nc2c(cc1C(=O)Nc1cccc(C)n1)CC(C)(C)O2 = 6.95

# pIC50 of Cn1cc(-c2cccc(NC(=O)c3cc4c(nc3OC3CCCC3)OC(C)(C)C4)n2)cn1 = 8.24

# pIC50 of CCOc1nc2c(cc1C(=O)Nc1cccc(-c3ccnn3C)n1)CC(C)(C)O2 = 7.12

* * *

- procedureSummary: Oral bioavailability in Sprague-Dawley rat at 5 to 10 mg/kg measured after 0.25 to 24 hrs by LC-MS analysis
- Assay type: ADME, organism-based
- particulars: in vivo, dose lower 5 mg/kg, time lower 0.25 hrs, dose upper 10 mg/kg, time upper 24 hrs
measurementKind: bioavailability (%)
Write the value in % as a bare number.

Cn1cc(-c2cccc(NC(=O)c3cc4c(nc3O[C@@H]3CCOC3)OC(C)(C)C4)n2)cn1
6.2
Cn1cc(-c2cccc(NC(=O)c3cc4c(nc3O[C@H]3C[C@H](O)C3)OC(C)(C)C4)n2)cn1
11
Cn1cc(-c2cccc(NC(=O)c3cc4c(nc3OC3CC3)OC(C)(C)C4)n2)cn1
1.6
Cn1cc(-c2cccc(NC(=O)c3cc4c(nc3OC3CCC3)OC(C)(C)C4)n2)cn1
3.1

Lab note: next compound to report on.
# bioavailability of Cn1cc(-c2cccc(NC(=O)c3cc4c(nc3O[C@H]3C[C@@H](O)C3)OC(C)(C)C4)n2)cn1 = 21
